Molecular target: recombinant HSF1 DNA-binding domain (DBD) (Homo sapiens, UniProt Q00613)
Sequence (Q00613 15-120): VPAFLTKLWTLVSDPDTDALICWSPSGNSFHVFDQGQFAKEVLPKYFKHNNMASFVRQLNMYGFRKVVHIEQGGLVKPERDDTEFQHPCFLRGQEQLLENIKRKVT
Test: Differential Scanning Fluorimetry (DSF), HSF1 DBD melting temperature
Conditions: Table 3; 5 μM HSF1 DBD, 25PM Compound; positive = stabilizes, negative = destabilizes HSF1
Result Type: ΔTm at 25 µM (°C)
Number in °C, nothing else.

Please review the entries below; each comes with its answer.
{"Compound": "N#Cc1ccc(NC(=O)Nc2ccc(CN3CCOCC3)c(S(=O)(=O)C(F)(F)F)c2)cc1 [Compound 288]", "ΔTm at 25 µM (°C)": 3.27}
{"Compound": "CN(C)CCc1cc(NC(=O)Nc2ccc3c(c2)S(=O)(=O)C=C3)ccc1C#N [Compound 290]", "ΔTm at 25 µM (°C)": 3.28}
{"Compound": "Cc1ccc(NC(=O)Nc2ccc(Br)c(C(F)(F)F)c2)cc1 [Compound 075]", "ΔTm at 25 µM (°C)": 2.61}
{"Compound": "O=C(Nc1ccc(F)cc1)Nc1ccc(Cl)c([N+](=O)[O-])c1 [Compound 017]", "ΔTm at 25 µM (°C)": 3}

Consider the compound shown here: N#Cc1ccc(NC(=O)Nc2ccc3c(c2)S(=O)(=O)C=C3)cc1CCN1CCOCC1 [Compound 292] What is its recorded ΔTm at 25 µM?
3.33
